testSystem: Histone deacetylase 1 (Homo sapiens, UniProt Q13547)
Sequence (Q13547 whole entry, the tested form may be a part): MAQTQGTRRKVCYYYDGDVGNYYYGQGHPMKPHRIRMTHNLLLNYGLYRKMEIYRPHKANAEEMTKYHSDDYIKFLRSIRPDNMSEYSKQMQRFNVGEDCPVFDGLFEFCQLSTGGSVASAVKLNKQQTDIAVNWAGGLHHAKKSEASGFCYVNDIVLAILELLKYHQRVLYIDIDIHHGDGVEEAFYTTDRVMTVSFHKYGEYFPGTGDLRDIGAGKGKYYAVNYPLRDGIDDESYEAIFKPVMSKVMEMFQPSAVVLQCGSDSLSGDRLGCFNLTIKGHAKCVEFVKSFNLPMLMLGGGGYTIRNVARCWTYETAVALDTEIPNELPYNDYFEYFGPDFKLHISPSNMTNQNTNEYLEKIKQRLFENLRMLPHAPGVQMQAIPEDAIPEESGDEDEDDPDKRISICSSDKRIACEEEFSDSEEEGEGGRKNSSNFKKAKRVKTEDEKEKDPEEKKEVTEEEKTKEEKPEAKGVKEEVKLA
experiment: Inhibition of full-length recombinant human HDAC1 (1 to 482 residues) expressed in baculovirus infected insect cells using Ac-Leu-Gly-Lys(Ac)-AMC as substrate incubated for 30 mins by fluorescence based assay
Recorded pIC50 by entry
Note on units: pIC50 is unitless, being -log10 of a concentration expressed in mol/L.

Give pIC50 for the following compound: COc1cc2c(cc1-c1c(C)noc1C)[nH]c1nc(C)nc(NCc3ccc(C(=O)NO)cc3)c12 6.35

// Input: COc1cc2c(cc1-c1c(C)noc1C)[nH]c1ncnc(NCCCCCCCC(=O)NO)c12 . Output its pIC50 only. 7.43

State its pIC50 for this compound: COc1cc2c(cc1-c1c(C)noc1C)[nH]c1ncnc(NCCCCCC(=O)NO)c12 6.69

Give pIC50 for COc1cc2c(cc1-c1c(C)noc1C)[nH]c1ncnc(Nc3ccc(C(=O)NO)cc3)c12 6.01
